Molecular target: Mu-type opioid receptor (Homo sapiens)
Sequence (P35372 whole entry): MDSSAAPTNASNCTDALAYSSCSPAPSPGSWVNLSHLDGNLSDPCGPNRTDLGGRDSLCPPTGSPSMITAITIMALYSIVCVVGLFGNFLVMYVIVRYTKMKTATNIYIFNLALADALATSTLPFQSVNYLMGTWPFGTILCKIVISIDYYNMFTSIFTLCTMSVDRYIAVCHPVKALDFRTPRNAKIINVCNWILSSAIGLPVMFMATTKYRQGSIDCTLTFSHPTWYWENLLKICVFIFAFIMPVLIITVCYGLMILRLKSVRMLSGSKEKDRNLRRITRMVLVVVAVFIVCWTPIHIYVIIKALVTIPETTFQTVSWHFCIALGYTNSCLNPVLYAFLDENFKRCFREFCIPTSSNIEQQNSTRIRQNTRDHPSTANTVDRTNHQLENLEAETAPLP
Assay: Antagonist activity at human mu opioid receptor stably transfected in CHO cells assessed as decrease in DAMGO induced receptor activation by cAMP assay
READOUT: pIC50
Scale: pIC50 equals -log10([C]), with [C] in mol/L.

stdin: Suppose we examine the compound CN(C)[C@H](CNC(=O)[C@H]1C[C@]1(C)c1ccccc1)Cc1ccc(O)cc1 ; what pIC50 value has been reported?
stdout: 6.68

stdin: Name the reported pIC50 value associated with the compound CN(C)[C@H](CNC(=O)[C@@H]1C[C@]1(C)c1ccccc1)Cc1ccc(O)cc1Cl
stdout: 7.54

stdin: If you can, please state the reported pIC50 value of CN(C)[C@H](CNC(=O)[C@@H]1C[C@]1(C)c1ccccc1)Cc1ccc(O)cc1 .
stdout: 6.96
